// provenance: ChEMBL document CHEMBL3507680

# TEST_DESCRIPTION: Human HepG2 cell viability assay in 384 well format
# Type: toxicity, cell-based
# Set-up: dose 125 nL, time 70.5 hour; concentration not given beside the values
# MEASUREMENT_PARAMETERS: HepG2 cells, read-out: Inhibition
ATTRIBUTE_MEASURED: cytotoxicity at 70.5 h (%)
Only the number, expressed in %, is required.

Reference set, count: 5
CCn1ncc2c1CN(CCc1cccc(Cl)c1)CC2COC (centres undefined) ... -8.31
Cc1c(C(=O)N(C)c2ccccc2)cccc1N(C)S(C)(=O)=O ... -7.07
Cc1noc(C(C)NC(=O)[C@@H](C)NC(=O)OC(C)(C)C)n1 (some centres undefined) ... -3.59
CCC(=O)NC(CC(C)C)c1cccs1 (centres undefined) ... -14
CCOc1ncccc1C(=O)N1CCCCC1c1nccs1 (centres undefined) ... 2.5

Returns the measured cytotoxicity at 70.5 h for the input compound. Input: COCCN1CCCC2(CCN(C(=O)c3cnc(O)cn3)C2)C1=O (centres undefined)
-6.54

What measured cytotoxicity at 70.5 h goes with Cc1ccc2oc(CNC(C)c3nnc4n3CCCC4)cc2c1 (centres undefined) ?
5.79

Can you look up the measured cytotoxicity at 70.5 h of CS(=O)(=O)Cc1ccc(C(=O)Nc2ccc3c(c2)C(=O)NC3)cc1 for me?
-6.71

Name the recorded cytotoxicity at 70.5 h for CN(C)CC1CN(C(=O)Cc2ccccc2)Cc2nccn2C1 (centres undefined) .
24

Need cytotoxicity at 70.5 h of CC(C)(C)c1nc2cc(NC(=O)Cn3ccc(=O)[nH]c3=O)ccc2o1 , thanks.
-13.2

Quick one: cytotoxicity at 70.5 h for CNC(=O)C1(c2cnccn2)CCCN1C(=O)c1ccc(OC)cc1 (centres undefined) ?
18.7

Which cytotoxicity at 70.5 h is listed for Cc1cc(NCC2CCS(=O)(=O)C2)n2nc(C)cc2n1 (centres undefined) ?
12.6

Entry N#Cc1cccnc1N1CCC(OCCc2ccccc2)CC1 : reported cytotoxicity at 70.5 h = ?
-9.51

Field request: cytotoxicity at 70.5 h | item: NCC1Cc2cc(Cl)cc(-c3cncc(C(=O)N4CCCCC4)n3)c2O1 (centres undefined)
-6.78

For the compound shown here, CCCc1nc(CN2CCOC(Cn3cncn3)C2)no1 (centres undefined) , give the reported cytotoxicity at 70.5 h.
18.1

Quick one: cytotoxicity at 70.5 h for CC(C)c1[nH]c2ncccc2c1CN1CCC(O)CC1 ?
-3.13

So what's the measured cytotoxicity at 70.5 h for this one? OCc1cc2ccccc2nc1N1CCCCC1
31.2

I have this compound here, Cc1cccc(CN2CCO[C@H]3[C@H](Oc4ccccn4)CC[C@@H]32)n1 , and I need its recorded cytotoxicity at 70.5 h.
-1.62

Data request, read-out cytotoxicity at 70.5 h, for COCC(O)CNC(=O)c1cnc(-c2ccccc2)nc1O (centres undefined)
-11.4

Endpoint output: cytotoxicity at 70.5 h of CCOc1cc(C)nc(N2CCN(C(=O)c3ccncc3)CC2)n1 . Value?
5.92

Need cytotoxicity at 70.5 h of CNc1cncc(C2CCCN(S(C)(=O)=O)C2)n1 (centres undefined) , thanks.
0.632

If you can, please state the reported cytotoxicity at 70.5 h value of Cc1ccccc1SCC(=O)NS(=O)(=O)c1ccc2c(c1)OCCO2 .
-2.48

Form field: reported cytotoxicity at 70.5 h of CCOCC(=O)N1CC[C@H]2O[C@@H](C)C[C@H]2C1
-12.8

Returns the measured cytotoxicity at 70.5 h for the input compound. Input: CN(Cc1ccncc1)Cc1nccn1Cc1ccccc1
-5.12

----------
# TEST_DESCRIPTION: Human HepG2 cell viability assay in 384 well format
# Assay type: toxicity, cell-based
# Parameters: dose 125 nL, time 70.5 hour; concentration not given beside the values
# MEASUREMENT_PARAMETERS: HepG2 cells, read-out: Inhibition
ATTRIBUTE_MEASURED: cytotoxicity at 70.5 h (%)
Numeric answer only, unit % assumed.

For orientation, consider the following solved cases.
O=C(c1ccc2c(c1)OCO2)N1CCC(Nc2cccnn2)CC1 ... 9.12
O=S(=O)(Cc1ccc(F)cc1)NCCc1nnc2n1CCC2 ... -18.4
FC(F)(F)COCCN1CCCC(c2noc(C3CC3)n2)C1 (configuration not stated) ... -10.4

Requested read-out: cytotoxicity at 70.5 h. Entry: Cc1cccnc1Nc1nccc(C2CN(CC(N)=O)C2)n1
-3.23

Data request, read-out cytotoxicity at 70.5 h, for O=C(NC1CCS(=O)(=O)c2ccccc21)c1cccs1 (configuration not stated)
-7.77

Name the reported cytotoxicity at 70.5 h value associated with the compound OCCNc1cc(N2CCN(Cc3ccccc3)C(CCO)C2)ncn1 (configuration not stated)
-7.07

// returns reported cytotoxicity at 70.5 h for input Cc1cnc(CN(C)C2CCN(Cc3cnc(C)s3)C2)o1 (configuration not stated)
-8.23

----------
# TEST_DESCRIPTION: Human HepG2 cell viability assay in 384 well format
# Assay type: toxicity, cell-based
# Design: dose 125 nL, time 70.5 hour; concentration not given beside the values
# MEASUREMENT_PARAMETERS: HepG2 cells, read-out: Inhibition
ATTRIBUTE_MEASURED: cytotoxicity at 70.5 h (%)
Kindly provide the numeric value in % only, without the unit symbol.

Name the recorded cytotoxicity at 70.5 h for COc1ccc(C(O)CNC(=O)NCc2csc(C)n2)cc1 (centres undefined) .
27.2

Which value of cytotoxicity at 70.5 h has been reported for Cn1cc(CC2CC(=O)N(Cc3ccc(Cl)cc3)C2=O)cn1 (centres undefined) in the records?
24.4

Look up cytotoxicity at 70.5 h for this compound: Cc1cnn(CC2CCCN2C(=O)Cc2c(C)noc2C)c1 (centres undefined)
-14

Need cytotoxicity at 70.5 h, item CC1CCN(C(=O)[C@H]2C[C@@H]3CCN(CC4CCOCC4)C[C@H]3O2)CC1
-6.03

# query: cytotoxicity at 70.5 h of entry Cc1cccnc1NCCNc1cc(C(C)C)nc2ccnn12
-11.6

Reported cytotoxicity at 70.5 h, compound CN(C)S(=O)(=O)N1CCOCC1CC(=O)NCCOc1ccccc1 (centres undefined) : ____
-15.5

Item O=C(CN1CCN(CC(O)C2CC2)CC1)NCc1ccccc1 (centres undefined) has what recorded cytotoxicity at 70.5 h?
-8.44

Please give the measured cytotoxicity at 70.5 h for this compound: CCc1ncnc2c1CCN(Cc1nccs1)CC2
-7.4

----------
# TEST_DESCRIPTION: Human HepG2 cell viability assay in 384 well format
# Type: toxicity, cell-based
# Design: dose 125 nL, time 70.5 hour; concentration not given beside the values
# MEASUREMENT_PARAMETERS: HepG2 cells, read-out: Inhibition
The molecules listed here are annotated with their cytotoxicity at 70.5 h.
Give just the number in %; leave the unit off.

Cc1nc(CN2CCO[C@H]3[C@@H](OCc4cccnc4)CC[C@@H]32)cs1 ... 4.04
Cc1ccoc1C(=O)NC1CCN(CC(=O)N(C)c2ccccc2)CC1 ... 18
COc1cc(F)c(S(=O)(=O)NCc2ccnc(N(C)C)n2)cc1OC ... -8.38
COCCC(C)NC(=O)c1cc(Br)c2c(c1)OCCO2 (centres undefined) ... -10.3
CN(Cc1ccsc1)C(=O)Nc1cccnc1N1CCCC1 ... 23
COc1cccc(CNc2nnc(C(C)(C)C)o2)c1OC ... -11.6
CN1C(=O)C2(CCN(C(=O)c3cccnc3)CC2)c2cccc(F)c21 ... -2.04
Cc1cccc(OCCCN2CCC(N(C)Cc3noc(C)n3)C2)c1 (centres undefined) ... 25.5

Look at this molecule and give its reported cytotoxicity at 70.5 h. CS(=O)(=O)CC(=O)N1C[C@H]2CCC[C@@]2(COCc2ccccn2)C1
-19.8

Item under review: CC(=O)c1ccc(S(=O)(=O)Nc2cnn(C3CCOCC3)c2)cc1 . Reported cytotoxicity at 70.5 h?
6.82

What value of cytotoxicity at 70.5 h has been reported for the following molecule? CN1CCOC(CNCc2coc(-c3cccs3)n2)C1 (centres undefined)
27.5

Can you share its cytotoxicity at 70.5 h? I mean this molecule: CC(C)(C)C(=O)NCCC(=O)N1CCC(Nc2cccnn2)CC1
-0.84

Could you share which cytotoxicity at 70.5 h value was measured for CN(Cc1ccsc1)c1nc(-c2ccccn2)nc2c1CCNCC2 ?
-9.47

Requested field: cytotoxicity at 70.5 h. Item: CNC(=O)c1cccc(CCNC2CCSc3ccccc32)c1 (centres undefined)
-3.79

Any idea what cytotoxicity at 70.5 h was measured for CN1CCCN(C(=O)NCCOc2ccc3c(c2)OCO3)CC1 ?
-2.86

So what does the record say about cytotoxicity at 70.5 h for CCOc1ccccc1C(=O)N1CCn2c(nnc2C(F)(F)F)C1 ?
-1.86

cytotoxicity at 70.5 h lookup needed for COc1ccc(CN[C@@H]2CO[C@H](CNC(=O)NC(C)C)[C@H]2O)cc1 , thanks.
-5.02

Given the molecule Cc1cccnc1CC(C)N(C)C(=O)c1cccs1 (centres undefined) , what is its reported cytotoxicity at 70.5 h?
-10.3

So what's the measured cytotoxicity at 70.5 h for this one? COc1cccc(CCC2CCCN(C(=O)c3ccc(=O)n(C)n3)C2)c1 (centres undefined)
-6.31

Fill in the blank: the reported cytotoxicity at 70.5 h of COc1cc(C)c(NC(=O)NCCn2cccc2)cc1OC is ____.
10.3
